assay: clinical; conditions: human, serum, inhaled or intranasal, 300 mg
reportedMetric: concentration at 0.5 h

recordsmiles=N=C(N)c1ccc(OCCCCCOc2ccc(C(=N)N)cc2)cc1 reportedmetric="concentration at 0.5 h" result="13 ng/mL"

* * *

assay: Pentamidine concentrations in lavage fluid and plasma, HPLC (Example 1); assay type: in vivo, human; conditions: human, bronchoalveolar lavage fluid, iv; patient 5, day 6
reportedMetric: concentration at 144 h (ng/mL)

recordsmiles=N=C(N)c1ccc(OCCCCCOc2ccc(C(=N)N)cc2)cc1 measurednumber=3.4

* * *

assay: Pentamidine concentrations in lavage fluid and plasma, HPLC (Example 1); assay type: in vivo, human; conditions: human, plasma, iv; read-out: maximum plasma concentration during remainder of therapy, mean
reportedMetric: Cmax (ng/mL)

recordsmiles=N=C(N)c1ccc(OCCCCCOc2ccc(C(=N)N)cc2)cc1 measurednumber=497

Source of measurements: patent US5364615A
